- Test system: Human immunodeficiency virus 1
- run.description: Antiviral activity against HIV-1 CH58TF infected in primary CD4 T cells isolated from PBMC assessed as antibody dependent cellular toxicity (ADCC) by measuring killing of p24+ infected cells at 50 uM FACS-based ADCC assay
- Assay type: functional, organism-based
- measurement.parameters: T cell
Active and inactive are the calls of the source. The calls are words filed in the database; no cut-off is given here.
Returns: one label drawn from 1.0 = active, 0.0 = inactive

In: Test call for this compound, please: N=C(N)NC[C@H]1Cc2cc(CN3CCC[C@H]3C(N)=O)ccc2[C@@H]1NC(=O)C(=O)Nc1ccc(Cl)c(F)c1
Out: 1.0

In: Test call for this compound, please: N=C(N)NC[C@H]1Cc2cc(CN3CCC[C@@H]3CO)ccc2[C@@H]1NC(=O)C(=O)Nc1ccc(Cl)c(F)c1
Out: 1.0

In: Test call for this compound, please: COC(=O)[C@@H]1C[C@@H](O)CN1Cc1ccc2c(c1)C[C@H](CNC(=N)N)[C@H]2NC(=O)C(=O)Nc1ccc(Cl)c(F)c1
Out: 0.0
